- Test system: Huh-7
- TEST_METHOD_NOTES: Cytotoxicity against human HuH7 cells after 72 hrs by SRB assay
- Format: functional, cell-based
- ASSAY_SETUP: Homo sapiens, Huh-7, 72 h; read-out: IC50
pIC50: −log10 of the molar value.
Measured pIC50 values are reported for all entries that follow.
PROPERTY: pIC50

                              smiles_string  target_or_system  result_qualifier  experimental_result
0  OC[C@H]1O[C@@H](n2cnc3c(N4CCN(c5ccc(Cl)c(Cl)c5)CC4)ncnc32)[C@H](O)[C@@H]1O             Huh-7                 =                 5.15
1  OC[C@H]1O[C@@H](n2cnc3c(N4CCN(C(c5ccccc5)c5ccccc5)CC4)ncnc32)[C@H](O)[C@@H]1O             Huh-7                 =                 4.35
2                   O=c1[nH]cc(F)c(=O)[nH]1             Huh-7                 =                 4.51
3  OC[C@H]1O[C@@H](n2cnc3c(N4CCN(c5ccccc5)CC4)ncnc32)[C@H](O)[C@@H]1O             Huh-7                 <                 4.00
4  CC[C@@]1(O)C(=O)OCc2c1cc1n(c2=O)Cc2cc3ccccc3nc2-1             Huh-7                 >                 7.00
5  OC[C@H]1O[C@@H](n2cnc3c(N4CCN(c5ccc(F)cc5)CC4)ncnc32)[C@H](O)[C@@H]1O             Huh-7                 =                 4.30
6  OC[C@H]1O[C@@H](n2cnc3c(N4CCN(c5ccc(C(F)(F)F)cc5)CC4)ncnc32)[C@H](O)[C@@H]1O             Huh-7                 =                 5.11

---

Measured IC50 values are reported for all entries that follow.
- System: HCT-116
- TEST_METHOD_NOTES: Cytotoxicity against human HCT116 cells after 72 hrs by SRB assay
- Format: functional, cell-based
- ASSAY_SETUP: Homo sapiens, HCT-116, 72 h; read-out: IC50
PROPERTY: IC50 (µM)

                                   compound  property  result_qualifier  experimental_result
0  OC[C@H]1O[C@@H](n2cnc3c(N4CCN(c5ccc(C(F)(F)F)cc5)CC4)ncnc32)[C@H](O)[C@@H]1O      IC50                 =                  6.7
1  OC[C@H]1O[C@@H](n2cnc3c(N4CCN(C(c5ccccc5)c5ccccc5)CC4)ncnc32)[C@H](O)[C@@H]1O      IC50                 =                 48.5
2  CC[C@@]1(O)C(=O)OCc2c1cc1n(c2=O)Cc2cc3ccccc3nc2-1 [CAMPTOTHECIN]      IC50                 <                  0.1
3    O=c1[nH]cc(F)c(=O)[nH]1 [FLUOROURACIL]      IC50                 =                    6
4  OC[C@H]1O[C@@H](n2cnc3c(N4CCN(c5ccc(Cl)c(Cl)c5)CC4)ncnc32)[C@H](O)[C@@H]1O      IC50                 =                  8.4
5  OC[C@H]1O[C@@H](n2cnc3c(N4CCN(c5ccccc5)CC4)ncnc32)[C@H](O)[C@@H]1O      IC50                 >                  100
6  OC[C@H]1O[C@@H](n2cnc3c(N4CCN(c5ccc(F)cc5)CC4)ncnc32)[C@H](O)[C@@H]1O      IC50                 >                  100

---

- Test system: HepG2
- TEST_METHOD_NOTES: Cytotoxicity against human HepG2 cells after 72 hrs by SRB assay
- Assay type: functional, cell-based
- ASSAY_SETUP: Homo sapiens, HepG2, 72 h; read-out: IC50
PROPERTY: IC50 (µM)

In [3]: df
Out[3]:
                              smiles_string  target_or_system  result_qualifier  experimental_result
0  CC[C@@]1(O)C(=O)OCc2c1cc1n(c2=O)Cc2cc3ccccc3nc2-1             HepG2                 <                  0.1
1  OC[C@H]1O[C@@H](n2cnc3c(N4CCN(c5ccc(Cl)c(Cl)c5)CC4)ncnc32)[C@H](O)[C@@H]1O             HepG2                 =                  6.1
2  OC[C@H]1O[C@@H](n2cnc3c(N4CCN(c5ccc(C(F)(F)F)cc5)CC4)ncnc32)[C@H](O)[C@@H]1O             HepG2                 =                  5.7
3  OC[C@H]1O[C@@H](n2cnc3c(N4CCN(c5ccccc5)CC4)ncnc32)[C@H](O)[C@@H]1O             HepG2                 >                  100
4  OC[C@H]1O[C@@H](n2cnc3c(N4CCN(C(c5ccccc5)c5ccccc5)CC4)ncnc32)[C@H](O)[C@@H]1O             HepG2                 =                 63.5
5  OC[C@H]1O[C@@H](n2cnc3c(N4CCN(c5ccc(F)cc5)CC4)ncnc32)[C@H](O)[C@@H]1O             HepG2                 >                  100
6                   O=c1[nH]cc(F)c(=O)[nH]1             HepG2                 =                    5
